Target: T1, human GALR2 (Galanin Receptor 2) (human, UniProt O43603 1-387)
T1 sequence: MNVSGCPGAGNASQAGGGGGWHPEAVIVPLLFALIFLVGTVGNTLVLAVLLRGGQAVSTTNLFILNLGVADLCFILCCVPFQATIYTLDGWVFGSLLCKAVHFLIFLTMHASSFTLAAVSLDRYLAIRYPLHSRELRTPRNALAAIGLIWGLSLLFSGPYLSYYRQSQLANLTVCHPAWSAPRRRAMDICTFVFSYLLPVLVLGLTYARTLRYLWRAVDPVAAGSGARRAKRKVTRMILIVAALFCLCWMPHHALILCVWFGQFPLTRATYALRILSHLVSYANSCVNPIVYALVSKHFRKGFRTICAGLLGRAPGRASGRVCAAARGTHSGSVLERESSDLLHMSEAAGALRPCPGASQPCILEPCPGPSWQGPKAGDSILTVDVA
Assay: cell-based or functional assay
Exercise: state measured FLIPR EC50 for each of the binders provided.

Task item: Look up FLIPR EC50: NWTPQAMLYLKGAQP [NWTPQAMLYLKGAQP (SEQ ID NO: 41)]
Reply: 0.3 nM

Task item: Look up FLIPR EC50: NWTPQAMLYLKGA [NWTPQAMLYLKGA (SEQ ID NO: 18)]
Reply: 4.3 nM

Task item: Look up FLIPR EC50: NWTPQAMLYLKGPQG [NWTPQAMLYLKGPQG (SEQ ID NO: 39)]
Reply: 0.3 nM

Task item: Look up FLIPR EC50: NWTPQAALYLKGAQG [NWTPQAALYLKGAQG (SEQ ID NO: 27)]
Reply: 3.4 nM

Task item: Look up FLIPR EC50: NWTPQAMLYLKPAQG [NWTPQAMLYLKPAQG (SEQ ID NO: 38)]
Reply: 20 nM

Task item: Look up FLIPR EC50: NWTAQAMLYLKGAQG [NWTAQAMLYLKGAQG (SEQ ID NO: 25)]
Reply: 3.6 nM

Task item: Look up FLIPR EC50: NWTPQAMLYLK [NWTPQAMLYLK (SEQ ID NO: 20)]
Reply: 1.9 nM

Task item: Look up FLIPR EC50: NWTPQAMLYLAGAQG [NWTPQAMLYLAGAQG (SEQ ID NO: 29)]
Reply: 9.6 nM

Task item: Look up FLIPR EC50: NWTPPAMLYLKGAQG [NWTPPAMLYLKGAQG (SEQ ID NO: 35)]
Reply: 97 nM
